A collection of molecules and their measured IC50
System: HCT116 FOP control reporter cell line
assay info: HCT116 FOPFlash control reporter assay (FOP control vector, non-functional TCF elements)
Format: cell-based
run parameters: Homo sapiens, HCT-116, 36 h, HCT116 FOP control reporter cells, 36 hours incubation, luciferase expression

[
  {
    "record smiles": "O=C(Nc1nnc(-c2ccccc2F)s1)c1ccc(OC(F)(F)F)c(NC(=O)C2(N3CCOCC3)CC2)c1",
    "IC50": "44 µM"
  },
  {
    "record smiles": "CN1CCN(CC(=O)Nc2cc(C(=O)Nc3ccc(-c4ccccc4F)nc3)ccc2C(F)(F)F)CC1",
    "IC50": "29.5 µM"
  },
  {
    "record smiles": "CS(=O)(=O)Cc1ccc(C(=O)Nc2nnc(-c3ccccc3)s2)cc1NC(=O)C1(N2CCN(C3CC3)CC2)CC1",
    "IC50": "≥ 50 µM"
  },
  {
    "record smiles": "C[C@@H]1CN(CC(=O)Nc2cc(C(=O)Nc3ccc(-c4ccccc4F)nc3)ccc2OC(F)(F)F)CCN1C",
    "IC50": "≥ 50 µM"
  },
  {
    "record smiles": "CN1CCN(CC(=O)Nc2cc(C(=O)Nc3nnc(-c4ccccc4)s3)ccc2OC(F)F)CC1",
    "IC50": "≥ 50 µM"
  },
  {
    "record smiles": "COCCN(C)C1(C(=O)Nc2cc(C(=O)Nc3nnc(-c4ccccc4)s3)ccc2OC(F)(F)F)CC1",
    "IC50": "≥ 50 µM"
  },
  {
    "record smiles": "O=C(CN1CCOCC1)Nc1cc(C(=O)Nc2nnc(-c3ccccc3)s2)ccc1OC1CC1",
    "IC50": "≥ 50 µM"
  }
]

----------
Test system: HCT116 FOP control reporter cell line
assay info: HCT116 FOPFlash control reporter assay (FOP control vector, non-functional TCF elements)
Format: cell-based
run parameters: Homo sapiens, HCT-116, 36 h, HCT116 FOP control reporter cells, 36 hours incubation, luciferase expression
From the text: In a parallel approach, HCT116 cells were cotransfected with the FOP control vector and pcDNA3. The FOP vector is identical to the TOP construct, but it contains instead of functional TCF elements a randomized, non-functional sequence. For this transfection a stable transfected cell line was generated as well.
pIC50: −log10 of the molar value.
test readout: pIC50

[
  {
    "molecule": "CN1CCN(CC(=O)Nc2cc(C(=O)Nc3ccc(-c4ccccc4F)nc3)ccc2OC(F)(F)F)CC1",
    "test readout": "pIC50",
    "bound operator": "=",
    "endpoint result": 4.47
  },
  {
    "molecule": "COc1ccc(C(=O)Nc2ccc(-c3ccccc3F)nc2)cc1NC(=O)CN1CCOCC1",
    "test readout": "pIC50",
    "bound operator": "≤",
    "endpoint result": 4.30
  },
  {
    "molecule": "CC(C(=O)Nc1cc(C(=O)Nc2nnc(-c3ccccc3)s2)ccc1OC(F)(F)F)N1CCN(C2CC2)CC1 (stereo not shown)",
    "test readout": "pIC50",
    "bound operator": "=",
    "endpoint result": 4.39
  },
  {
    "molecule": "O=C(CN1CCOCC1)Nc1cc(NC(=O)c2ccc(-c3ccccc3)s2)ccc1OC(F)(F)F",
    "test readout": "pIC50",
    "bound operator": "≤",
    "endpoint result": 4.30
  }
]
